System Under Test: Androgen Receptor (Homo sapiens, UniProt P10275+P40337, T878A)
Construct: Compounds have been evaluated in this assay in LNCaP and/or VCaP cells utilizing similar protocols; endogenous in cells; host or cells: LNCaP cells
Sequence (P10275 whole entry T878A): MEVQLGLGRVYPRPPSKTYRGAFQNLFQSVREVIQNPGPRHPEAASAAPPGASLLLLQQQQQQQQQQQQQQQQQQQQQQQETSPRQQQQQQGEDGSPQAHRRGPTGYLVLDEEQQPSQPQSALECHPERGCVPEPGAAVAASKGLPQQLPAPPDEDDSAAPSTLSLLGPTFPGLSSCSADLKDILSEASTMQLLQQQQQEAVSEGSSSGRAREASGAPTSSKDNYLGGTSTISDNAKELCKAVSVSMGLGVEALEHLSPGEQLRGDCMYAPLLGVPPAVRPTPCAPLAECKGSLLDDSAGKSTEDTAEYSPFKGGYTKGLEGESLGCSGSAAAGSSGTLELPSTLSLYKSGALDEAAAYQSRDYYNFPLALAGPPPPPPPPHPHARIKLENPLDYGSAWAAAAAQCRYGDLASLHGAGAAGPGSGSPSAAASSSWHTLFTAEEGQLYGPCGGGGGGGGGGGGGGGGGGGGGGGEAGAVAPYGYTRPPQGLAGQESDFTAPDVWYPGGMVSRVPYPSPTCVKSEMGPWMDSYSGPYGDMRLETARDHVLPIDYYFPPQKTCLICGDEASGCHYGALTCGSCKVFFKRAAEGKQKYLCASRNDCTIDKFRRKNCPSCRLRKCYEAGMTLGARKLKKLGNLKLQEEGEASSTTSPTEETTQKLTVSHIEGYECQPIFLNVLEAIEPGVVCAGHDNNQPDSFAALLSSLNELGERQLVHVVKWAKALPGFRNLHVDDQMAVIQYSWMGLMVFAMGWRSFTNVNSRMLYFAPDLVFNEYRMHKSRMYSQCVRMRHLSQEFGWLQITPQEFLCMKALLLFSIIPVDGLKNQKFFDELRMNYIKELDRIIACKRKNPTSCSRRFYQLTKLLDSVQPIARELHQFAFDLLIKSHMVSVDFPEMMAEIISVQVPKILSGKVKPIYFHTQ
Sequence (P40337 whole entry): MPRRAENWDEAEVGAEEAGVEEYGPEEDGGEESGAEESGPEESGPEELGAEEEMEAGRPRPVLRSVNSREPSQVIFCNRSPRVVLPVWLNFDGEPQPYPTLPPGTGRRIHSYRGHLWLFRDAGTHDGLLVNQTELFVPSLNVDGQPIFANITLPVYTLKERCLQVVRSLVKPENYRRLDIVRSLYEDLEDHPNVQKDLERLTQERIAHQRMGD
Sequence (Q15369 whole entry partner): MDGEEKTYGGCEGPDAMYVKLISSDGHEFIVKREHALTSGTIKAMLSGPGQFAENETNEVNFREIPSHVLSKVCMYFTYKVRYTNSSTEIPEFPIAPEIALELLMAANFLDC
Sequence (Q15370 whole entry partner): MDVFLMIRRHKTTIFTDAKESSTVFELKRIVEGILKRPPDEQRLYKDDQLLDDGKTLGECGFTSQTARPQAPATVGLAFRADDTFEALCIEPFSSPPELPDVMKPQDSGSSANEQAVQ
Protocol Notes: Androgen Receptor ELISA assay (PathScan AR ELISA) in LNCaP cells: AR degradation, Dmax and DC50
Assay type: cell-based
Condition Details: highest percentage of Androgen Receptor degradation observed
Property Measured: Dmax

Here's what some known entries look like.
Cc1ncsc1-c1ccc(CNC(=O)[C@@H]2C[C@@H](O)CN2C(=O)[C@@H](NC(=O)COCCCCOc2ccc(-c3ccc(N4C(=S)N(c5ccc(C#N)c(C(F)(F)F)c5)C(=O)C4(C)C)cc3)cc2)C(C)(C)C)cc1 [Example 75]: > 71%
Cc1ncsc1-c1ccc(CNC(=O)[C@@H]2C[C@@H](O)CN2C(=O)[C@@H](NC(=O)COCCCOCCC(C)(C)CCOc2ccc(N3C(=S)N(c4ccc(C#N)c(C(F)(F)F)c4)C(=O)C3(C)C)cc2)C(C)(C)C)cc1 [Example 12]: > 71%
Cc1ncsc1-c1ccc(CNC(=O)[C@@H]2C[C@@H](O)CN2C(=O)[C@@H](NC(=O)COCCOCCNC(=O)CCCc2ccc(N3C(=S)N(c4ccc(C#N)c(C(F)(F)F)c4)C(=O)C3(C)C)cc2)C(C)(C)C)cc1 [Example 62]: 51 to 70%
Cc1ncsc1-c1ccc([C@H](C)NC(=O)[C@@H]2C[C@@H](O)CN2C(=O)[C@@H](NC(=O)COCCCOCCCCCOc2ccc(N3C(=S)N(c4ccc(C#N)c(C(F)(F)F)c4)C(=O)C3(C)C)cc2)C(C)(C)C)cc1 [Example 4]: > 71%
Cc1ncsc1-c1ccc([C@H](C)NC(=O)[C@@H]2C[C@@H](O)CN2C(=O)[C@@H](NC(=O)COCCCOCCCCCOc2c(F)cc(N3C(=S)N(c4ccc(C#N)c(C(F)(F)F)c4)C(=O)C3(C)C)cc2F)C(C)(C)C)cc1 [Example 11]: > 71%
Cc1ncsc1-c1ccc(CNC(=O)[C@@H]2C[C@@H](O)CN2C(=O)[C@@H](NC(=O)COCCCCOCCCOc2ccc(N3C(=S)N(c4ccc(C#N)c(C(F)(F)F)c4)C(=O)C3(C)C)cc2)C(C)(C)C)cc1 [Example 52]: > 71%
Cc1ncsc1-c1ccc(CNC(=O)[C@@H]2C[C@@H](O)CN2C(=O)[C@H](C(C)C)N2Cc3ccc(F)cc3C2=O)c(OCCOCCOCCOc2ccc(N3C(=S)N(c4ccc(C#N)c(C(F)(F)F)c4)C(=O)C3(C)C)cc2)c1 [Example 83]: 51 to 70%
Cc1ncsc1-c1ccc(CNC(=O)[C@@H]2C[C@@H](O)CN2C(=O)[C@H](C(C)C)N2Cc3ccccc3C2=O)c(OCCOCCOCCOc2ccc(N3C(=S)N(c4ccc(C#N)c(C(F)(F)F)c4)C(=O)C3(C)C)cc2)c1 [Example 82]: 51 to 70%

Q: // map Cc1ncsc1-c1ccc(CNC(=O)[C@@H]2C[C@@H](O)CN2C(=O)[C@@H](NC(=O)COCCCOCCCCCOc2ccc(N3C(=S)N(c4ccc([N+](=O)[O-])c(C(F)(F)F)c4)C(=O)C3(C)C)cc2)C(C)(C)C)cc1 [Example 5] to recorded Dmax (system: Androgen Receptor (Homo sapiens, UniProt P10275+P40337, T878A))
A: > 71%

Q: Param readout= Dmax; system= Androgen Receptor (Homo sapiens, UniProt P10275+P40337, T878A); entry= Cc1ncsc1-c1ccc(CNC(=O)[C@@H]2C[C@@H](O)CN2C(=O)[C@@H](NC(=O)CO[C@H](C)[C@@H](C)OCCOCCOc2ccc(N3C(=S)N(c4ccc(C#N)c(C(F)(F)F)c4)C(=O)C3(C)C)cc2)C(C)(C)C)cc1 [Example 22] ; returns value.
A: 51 to 70%
